- System: LOC_OS05G28520-cb001
- Assay summary: thermal shift delta Tm vs DMSO control; higher = stronger stabilization (binding);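 further: purified Escherichia coli-expressed rice kinase domain construct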
- Condition context: 12.5 µM; protein concentration 2 µM
Where thermal shift delta Tm equals or exceeds 0.5 °C, the correct label is MET; where it does not, the label is NOT MET.

                               input_smiles    class
0  Cn1cc(-c2ccc3ncc(Cc4ccc5ncccc5c4)n3n2)cn1  NOT MET
1   Nc1ncc(-c2ccnc(Nc3ccncc3)n2)c(CC2CC2)n1  NOT MET
2  COc1ccc(C(=O)Nc2sc3c(c2C(N)=O)CCCC3)cc1OC      MET
3  CCCCCCCCCCCCCCCCOP(=O)([O-])OCC[N+](C)(C)C  NOT MET
4    N#Cc1c(NC(=O)c2cccc3ccccc23)sc2c1CCCC2      MET
5  CN(C)Cc1cccc(N=C(c2ccccc2)c2c(O)[nH]c3cc(C(=O)N(C)C)ccc23)c1  NOT MET

Turning to the following molecule.
Check if thermal shift delta Tm >= 0.5 °C (inclusive). Item: `CN(C)Cc1cccc(N/C(=C2\C(=O)Nc3cc(C(N)=O)ccc32)c2ccccc2)c1`
NOT MET

---

- Test system: LOC_OS01G01410-cb001
- Assay summary: thermal shift delta Tm vs DMSO control; higher = stronger stabilization (binding)
- Condition context: 12.5 µM; protein concentration 2 µM
# thermal shift delta Tm per entry
Quote the value and follow it with the unit of measurement.

Solved entries:
                                   compound   result
0  CO[C@@H](C(=O)N1Cc2[nH]nc(NC(=O)c3ccc(N4CCN(C)CC4)cc3)c2C1)c1ccccc1     3 °C
1     Cn1cc(/C=C2\C(=O)Nc3cccnc32)c2ccccc21   3.9 °C
2  Fc1ccc2[nH]ccc2c1-c1nc(N2CCOCC2)c2sc(CN3CCN(CC4CC4)CC3)cc2n1  0.26 °C

May I ask what thermal shift delta Tm has been recorded for `COc1cc(N2CCC(N(C)C)CC2)ccc1Nc1ncc(Cl)c(Nc2ccccc2P(C)(C)=O)n1` ?
0.42 °C

May I ask what thermal shift delta Tm has been recorded for CCC[C@H](NC(=O)/C(C#N)=C/c1cccc(Br)n1)c1ccccc1 [Degrasyn (WP1130)] ?
-2.54 °C

May I ask what thermal shift delta Tm has been recorded for `Cn1cc(-c2ccc3c(c2)CCN3C(=O)Cc2cccc(C(F)(F)F)c2)c2c(N)ncnc21` ?
1.18 °C

---

- Tested on: LOC_OS04G57630-cb004
- Assay summary: thermal shift delta Tm vs DMSO control; higher = stronger stabilization (binding)
- Condition context: 12.5 µM; protein concentration 2 µM
Where thermal shift delta Tm equals or exceeds 0.1 °C, the correct label is criterion met; where it does not, the label is criterion not met.

These solved cases illustrate the format of a correct answer.
In [3]: df
Out[3]:
                                   molecule          assay_target              class
0  COc1nccnc1NS(=O)(=O)c1ccc(NC(=O)/C=C/c2ccc([N+](=O)[O-])s2)cc1 [Necrosulfonamide]  LOC_OS04G57630-cb004  criterion not met
1  COc1cc(N2CCN(C)CC2)ccc1Nc1nccc(-c2cn(C)c3cnccc23)n1  LOC_OS04G57630-cb004      criterion met

Check if thermal shift delta Tm >= 0.1 °C (inclusive). Item: `Cc1nc(N)sc1-c1ccnc(Nc2ccc(N3CCOCC3)cc2)n1`
criterion met

Check if thermal shift delta Tm >= 0.1 °C (inclusive). Item: `CC(C)(O)CNc1ncc(-c2ccnc(Nc3ccncc3)n2)c(CC2CC2)n1`
criterion met

Check if thermal shift delta Tm >= 0.1 °C (inclusive). Item: CCN(CC)CCCC(C)Nc1ccnc2cc(Cl)ccc12 (stereo not given) [Chloroquine Phosphate]
criterion met
